These measurements were taken from the supplement of paper PMC10127200.

tested on: OVCAR4; assay: Euclidean distance of Cell Painting phenotypic profile (signed KS, 77 features) to DMSO centroid (dimensionless distance); 5 or 10 uM (library dependent); higher = stronger phenotypic change vs DMSO (phenoactivity); settings: 48 h
Structures can show the parent of a compound that is named as a salt.
# reported Euclidean distance; entries follow
Respond using a number only.

CCCCOc1cc(C(=O)NCCN(CC)CC)c2ccccc2n1 :: 1.21
Cn1c(=O)c2[nH]cnc2n(C)c1=O :: 0.841
Nc1c2c(nc3ccccc13)CCCC2 [Tacrine HCl] :: 1.16
CC1(C)S[C@@H]2[C@H](NC(=O)[C@H](N)c3ccc(O)cc3)C(=O)N2[C@H]1C(=O)O [Amoxicillin trihydrate] :: 1.31
COc1ccccc1Oc1c(NS(=O)(=O)c2ccc(C(C)(C)C)cc2)nc(-c2ncccn2)nc1OCCO [Bosentan Hydrate] :: 1.04
CC(CNC(=O)c1cccnc1)NC(=O)c1cccnc1 (centres undefined) :: 1.91
N=c1ccn2c(n1)O[C@H]1[C@H](O)[C@@H](CO)O[C@H]12 [Cyclocytidine HCl] :: 4.57
O=c1cc(CO)occ1O :: 1.14

# evaluate next
State its Euclidean distance on OVCAR4: C[C@]12CC[C@@H]3c4ccc(O)cc4C[C@@H](CCCCCCCCC[S+]([O-])CCCC(F)(F)C(F)(F)F)[C@H]3[C@@H]1CC[C@@H]2O (some centres undefined)
1.56

---

system: HEPG2; assay: Euclidean distance of Cell Painting phenotypic profile (signed KS, 77 features) to DMSO centroid (dimensionless distance); 5 or 10 uM (library dependent); higher = stronger phenotypic change vs DMSO (phenoactivity); conditions: 48 h
Counter-ions that a name gives are not always drawn.
# reported Euclidean distance; entries follow
Respond using a number only.

Answered cases to consult:
NC(=O)[C@@H]1CC[C@@H]2CN1C(=O)N2OS(=O)(=O)O [Avibactam sodium] :: 0.607
O=C(NCCS(=O)(=O)c1ccc(C(F)(F)F)cn1)c1ccc(Cl)cc1 :: 0.723
CN(C)CCOC(C)(c1ccccc1)c1ccccn1 (stereo not drawn) [Doxylamine Succinate] :: 0.475
CN(C)CCc1c[nH]c2ccc(C[C@H]3COC(=O)N3)cc12 :: 0.663
CO[C@@H](C(=O)N1Cc2[nH]nc(NC(=O)c3ccc(N4CCN(C)CC4)cc3)c2C1)c1ccccc1 :: 1.25

State its Euclidean distance on HEPG2: Cc1ccc(NC(=O)c2ccc(CN3CCN(C)CC3)cc2)cc1Nc1nccc(-c2cccnc2)n1 [Imatinib Mesylate (STI571)]
1.61

Try CC(C)(C)C(=O)Oc1ccc(S(=O)(=O)Nc2ccccc2C(=O)NCC(=O)O)cc1 [Sivelestat sodium tetrahydrate] next.
0.892

Try C[C@H](NC(=O)Cc1cc(F)cc(F)c1)C(=O)N[C@@H]1C(=O)N(C)c2ccccc2-c2ccccc21 next.
0.895

---

system: HEPG2; test: Euclidean distance of Cell Painting phenotypic profile (signed KS, 77 features) to DMSO centroid (dimensionless distance); 5 or 10 uM (library dependent); higher = stronger phenotypic change vs DMSO (phenoactivity); conditions: 48 h
Where a name gives a salt, the structure may show the parent alone.
Dear colleague, classification is by Euclidean distance, with ranges listed here: low class (below 0.8), middle class (0.8 to below 1), high class (1 or more)

OCCOc1ccc(/C(=C(/CCCl)c2ccccc2)c2ccccc2)cc1 :: high class

Let's switch to this molecule now.
Classify this molecule: N[C@@H]1CCCCN(c2c(F)cc3c(=O)c(C(=O)O)cn(C4CC4)c3c2Cl)C1 [Besifloxacin HCl]
middle class

---

tested on: DU145; test: Euclidean distance of Cell Painting phenotypic profile (signed KS, 77 features) to DMSO centroid (dimensionless distance); 5 or 10 uM (library dependent); higher = stronger phenotypic change vs DMSO (phenoactivity); conditions: 48 h
REPORTED_METRIC: Euclidean distance

Answered cases to consult:
COC(=O)C1=C(C)NC(C)=C(C(=O)OC(C)C)C1c1cccc2nonc12 (centres undefined) [Isradipine] :: 1.21
C=CC(=O)Nc1cccc(Oc2nc(Nc3ccc(N4CCN(C)CC4)cc3)ncc2Cl)c1 :: 2.46
Cn1cc(-c2cnn3c(N)c(Br)c([C@@H]4CCCNC4)nc23)cn1 :: 1.19

# evaluate next
Item CC(C)(C)[N+]([O-])=Cc1ccc(S(=O)(=O)O)cc1S(=O)(=O)O has what recorded Euclidean distance?
0.995

---

system: HEPG2; test: Euclidean distance of Cell Painting phenotypic profile (signed KS, 77 features) to DMSO centroid (dimensionless distance); 5 or 10 uM (library dependent); higher = stronger phenotypic change vs DMSO (phenoactivity); conditions: 48 h
Where a name gives a salt, the structure may show the parent alone.
Where Euclidean distance equals or exceeds 1, the correct label is label 1; where it does not, the label is label 0.

Example entries begin here.
CCC1(c2c[nH]cn2)Cc2ccccc2C1 :: label 0
Oc1ccc([C@H]2COc3cc(O)ccc3C2)cc1 :: label 0
O=C1c2cccc3c2[C@H](CCC3)CN1[C@@H]1CN2CCC1CC2 [Palonosetron HCl] :: label 1
COc1cc2ncc(-c3ccccc3)nc2cc1OC :: label 1
C[C@H]1[C@H](C)CC[C@]2(C(=O)O[C@@H]3O[C@H](CO[C@@H]4O[C@H](CO)[C@@H](O[C@@H]5O[C@@H](C)[C@H](O)[C@@H](O)[C@H]5O)[C@H](O)[C@H]4O)[C@@H](O)[C@H](O)[C@H]3O)CC[C@]3(C)C(=CC[C@@H]4[C@@]5(C)C[C@@H](O)[C@H](O)[C@@](C)(CO)[C@@H]5[C@H](O)C[C@]43C)[C@H]12 [Madecassoside] :: label 0

Given the entry C[n+]1ccccc1C=NO [Pralidoxime Iodide] , answer whether its Euclidean distance meets or surpasses 1.
label 0

Try C=CC(=O)Nc1cc(Nc2nccc(-c3cn(C4CC4)c4ccccc34)n2)c(OC)cc1N(C)CCN(C)C next.
label 1

---

system: A549; test: Euclidean distance of Cell Painting phenotypic profile (signed KS, 77 features) to DMSO centroid (dimensionless distance); 5 or 10 uM (library dependent); higher = stronger phenotypic change vs DMSO (phenoactivity); conditions: 48 h
Counter-ions that a name gives are not always drawn.
# reported Euclidean distance; entries follow
Respond using a number only.

Answered cases to consult:
CC[C@H](C)C(=O)O[C@H]1C[C@@H](C)C=C2C=C[C@H](C)[C@H](CC[C@@H]3C[C@@H](O)CC(=O)O3)[C@H]21 :: 1.61
CC(C)[C@H](NC(=O)[C@H](CC(=O)O)NC(=O)[C@H](CCCCN)NC(=O)[C@@H](N)CCCN=C(N)N)C(=O)N[C@@H](Cc1ccc(O)cc1)C(=O)O :: 1.19
CNC(=O)CN(CCN(CCN(CC(=O)[O-])CC(=O)NC)CC(=O)[O-])CC(=O)[O-].[Gd+3] [Gadodiamide] :: 1.55
CN(C)C1CCN(C(=O)c2ccc(NC(=O)Nc3ccc(-c4nc(N5CCOCC5)nc(N5CCOCC5)n4)cc3)cc2)CC1 :: 3.49

State its Euclidean distance on A549: C/C(=C\C(=O)OCCCCCCCCC(=O)O)C[C@@H]1OC[C@H](C[C@@H]2O[C@H]2[C@@H](C)[C@H](C)O)[C@@H](O)[C@H]1O [Mupirocin]
0.693

Try C[C@]1(COc2ccc(N3CCC(Oc4ccc(OC(F)(F)F)cc4)CC3)cc2)Cn2cc([N+](=O)[O-])nc2O1 next.
1.11

Try CC(=O)OCC1=C(C(=O)O)N2C(=O)[C@@H](NC(=O)CSc3ccncc3)[C@H]2SC1 next.
0.954

Try CCn1nc(C(=O)O)c(=O)c2cc3c(cc21)OCO3 next.
1.18

Try N[C@H](Cc1ccccc1)C(=O)O next.
1.05

Try C[C@H]1CO[C@@H]2Cn3cc(C(=O)NCc4ccc(F)cc4F)c(=O)c(O)c3C(=O)N12 next.
1.26

Try Cc1ccc(Cl)c(Nc2ccccc2C(=O)O)c1Cl [Meclofenamate Sodium] next.
1.34

Try CCCCOc1cc(C(=O)NCCN(CC)CC)c2ccccc2n1 [Cinchocaine] next.
1.28

Try CCCC(CCC)C(=O)O [Valproic acid sodium salt (Sodium valproate)] next.
0.706

Try O=C1NCC2(CCN(CCc3ccccc3)CC2)O1 [Fenspiride HCl] next.
1.2

Try CN(C)Cc1c(C(=O)NCCOc2ccc(C(=O)NO)cc2)oc2ccccc12 next.
4.31

Try OC1CN(CCCOCCc2ccc3sccc3c2)C1 [Edonerpic maleate] next.
0.582

---

test system: HEPG2; assay: Euclidean distance of Cell Painting phenotypic profile (signed KS, 77 features) to DMSO centroid (dimensionless distance); 5 or 10 uM (library dependent); higher = stronger phenotypic change vs DMSO (phenoactivity); conditions: 48 h
Structures can show the parent of a compound that is named as a salt.
# reported Euclidean distance; entries follow
Respond using a number only.

Answered cases to consult:
CN(C)C(=O)C(CCN1CCC(O)(c2ccc(Cl)cc2)CC1)(c1ccccc1)c1ccccc1 [Loperamide HCl] :: 2.35
CCC[C@@H]1C[C@@H](C(=O)N[C@@H]([C@H]2O[C@H](SC)[C@H](O)[C@@H](O)[C@H]2O)[C@H](C)Cl)N(C)C1 [Clindamycin HCl] :: 0.82
Cc1cccc(Oc2cnc(=O)[nH]c2)c1 :: 0.543
Cc1cn([C@H]2C=C[C@@H](CO)O2)c(=O)[nH]c1=O :: 0.716
O=c1ccc2cc3ccoc3cc2o1 :: 1.17
C[C@]12CC[C@@H]3c4ccc(OC(=O)c5ccccc5)cc4CC[C@H]3[C@@H]1CC[C@@H]2O [Estradiol Benzoate] :: 0.557
O=C1NC(=O)C(c2ccccc2[N+](=O)[O-])=C1Nc1ccc(O)c(Cl)c1 :: 0.886

# evaluate next
State its Euclidean distance on HEPG2: COc1ccc(CC(C)NCC(O)c2ccc(O)c(NC=O)c2)cc1 (stereo not drawn) [Formoterol Hemifumarate]
1.15
